# pIC50 per record follows
- assay.method.text: Inhibition of human topoisomerase type 1B assessed as reduction in enzyme-mediated relaxation of supercoiled pBAD/Thio DNA after 30 mins by agarose gel electrophoresis method
Just so you know, pIC50 here is -log10 of the concentration in molar units; reply with that number alone.

Here is how some compounds turned out for pIC50.
>  <mol.smiles>
N[C@H]1CCN(c2c(F)cc3c(=O)c(C(=O)O)cn4c3c2Oc2cc([N+](=O)[O-])ccc2-4)C1

>  <pIC50>
5.11

$$$$
>  <mol.smiles>
CN1CCN(c2c(F)cc3c(=O)c(C(=O)O)cn4c3c2Oc2cc([N+](=O)[O-])ccc2-4)CC1

>  <pIC50>
4.51

$$$$
>  <mol.smiles>
Nc1ccc2c(c1)Oc1c(N3CCNCC3)c(F)cc3c(=O)c(C(=O)O)cn-2c13

>  <pIC50>
5.11

$$$$
>  <mol.smiles>
CN1CCN(c2c(F)cc3c(=O)c(C(=O)O)cn4c3c2Oc2cc(N)ccc2-4)CC1

>  <pIC50>
4.81

$$$$

# input for lookup
Data request: # return recorded pIC50 for entry Nc1ccc2c(c1)Oc1c(F)c(F)cc3c(=O)c(C(=O)O)cn-2c13
Data returned: 4.50
